# Target Or System: T1, human Claudin18.2 (human)
# T1 construct: also called CLDN18.2
# Assay Remarks: FACS, Claudin18.2-HEK293 cells
Measurement Label: EC50 (µg/mL)
Note: unit µg/mL is implicit; provide only the numeric part.

Worked examples follow.
Binder: humanized 246B5F2-VH1.1 + VL1.1 (antibody, human IgG1, kappa, V domains shown, humanized, human IgG1/kappa constant regions) VH: EVQLLESGGGLVQPGGSLRLSCAASEFTFSNYAMSWVRQAPGKRLEWVATISSGRSSTYYPDSVKGRFTISRDNSKNTLYLQMNSLRAEDTAVYYCAGLGRGNAMEYWGQGTLVTVSS VL: DIVMTQSPDSLAVSLGERATISCKSSQSLLNSGNQKNYLTWYQQKPGQPPKLLIYWASTRESGVPDRFTGSGSGTDFTLTISSLQAEDVAVYYCQNAYSYPFTFGGGTKLEIKR
EC50, µg/mL: 0.283
//
Binder: humanized 412B6E4-VH1.1 + VL1.1 (antibody, human IgG1, kappa, V domains shown, humanized, human IgG1/kappa constant regions) VH: EVQLVESGGGLVQPGGSLRLSCAASGFTFSSFGVHWVRQAPGKGLEWVAYISSGSSTIYYAHSVKGRFTISRDNAKNSLFLQMNSLRAEDTAVYYCARFYYGNSFAYWGQGTLVTVSS VL: DIVMTQSPDSLAVSLGERATMSCKSSQSLLNSGNQKNYLTWYQQKPGQPPKMLIYWASTRESGVPDRFSGSGSGTDFTLTISSLQAEDVAVYYCQNAYTYPLTFGQGTKLEIKR
EC50, µg/mL: 0.571
//
Binder: humanized 246B5F2-VH1.1 + VL1 (antibody, human IgG1, kappa, V domains shown, humanized, human IgG1/kappa constant regions) VH: EVQLLESGGGLVQPGGSLRLSCAASEFTFSNYAMSWVRQAPGKRLEWVATISSGRSSTYYPDSVKGRFTISRDNSKNTLYLQMNSLRAEDTAVYYCAGLGRGNAMEYWGQGTLVTVSS VL: DIVMTQSPDSLAVSLGERATINCKSSQSLLNSGNQKNYLTWYQQKPGQPPKLLIYWASTRESGVPDRFSGSGSGTDFTLTISSLQAEDVAVYYCQNAYSYPFTFGGGTKLEIKR
EC50, µg/mL: 0.104

Read the entry humanized 237D2A4-VH1.2 + VL1 (antibody, human IgG1, kappa, V domains shown, humanized, human IgG1/kappa constant regions) VH: QVQLQESGPGLVKPSETLSLTCTVSGFSLTSYGVSWIRQPPGKGLEWIGVIWGDGSTNYHSTLISRVTISKDTSKNQVFLKLSSVTAADTAVYYCAKAGRGNALDYWGQGTLVTVSS VL: DIVMTQSPDSLAVSLGERATINCKSSQSLLNSGNQKNYLTWYQQKPGQPPKLLIYWASTRESGVPDRFSGSGSGTDFTLTISSLQAEDVAVYYCQNDYSFPLTFGGGTKLEIKR and write its reported EC50. 0.261
